Values of Ki reported for UniProt:P27338 appear below.
Sequence (P27338 whole entry): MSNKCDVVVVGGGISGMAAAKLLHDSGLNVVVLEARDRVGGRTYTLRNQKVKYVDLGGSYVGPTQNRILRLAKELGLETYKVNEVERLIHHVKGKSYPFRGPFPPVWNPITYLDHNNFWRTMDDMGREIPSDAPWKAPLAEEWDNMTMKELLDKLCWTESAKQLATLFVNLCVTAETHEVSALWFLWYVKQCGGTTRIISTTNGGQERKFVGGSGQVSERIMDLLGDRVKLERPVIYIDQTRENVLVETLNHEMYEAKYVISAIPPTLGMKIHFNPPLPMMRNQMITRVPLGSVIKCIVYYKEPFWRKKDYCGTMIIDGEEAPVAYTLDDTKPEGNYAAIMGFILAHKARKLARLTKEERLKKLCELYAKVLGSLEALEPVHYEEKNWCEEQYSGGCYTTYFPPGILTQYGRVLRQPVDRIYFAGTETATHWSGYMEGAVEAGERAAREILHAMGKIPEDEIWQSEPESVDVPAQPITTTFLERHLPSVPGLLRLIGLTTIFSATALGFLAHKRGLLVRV

Guide cases for Ki, answers given:
>>> observed_result("CN(CC(N)=O)[C@H]1C[C@@H]1c1ccccc1 (relative stereo)")
"> 100 µM"
>>> observed_result("CN(CC(=O)NC1CC1)[C@H]1C[C@@H]1c1ccccc1 (relative stereo)")
"> 100 µM"
>>> observed_result("CN(C)CCNC(=O)CN[C@H]1C[C@@H]1c1ccccc1 (relative stereo)")
"> 40 µM"

For O=C(CN[C@H]1C[C@@H]1c1ccccc1)Nc1ccc(F)cc1 (relative stereo) the compound record lists Ki as > 50 µM

---

Values of pKi reported for MAO-A (Homo sapiens (Human)) appear below.
pKi: −log10 of the molar value.

Guide cases for pKi, answers given:
>>> observed_result("O=C(CN[C@H]1C[C@@H]1c1ccccc1)Nc1ccc(F)cc1 (relative stereo)")
"< 4.30"
>>> observed_result("CN(CC(N)=O)[C@H]1C[C@@H]1c1ccccc1 (relative stereo)")
"< 4.00"

Switching to the query record.
Form: item CN1CCN(C(=O)CN[C@H]2C[C@@H]2c2ccc(OCc3ccccc3)cc2)CC1 (relative stereo) ; test system MAO-A (Homo sapiens (Human)); pKi: 4.96

Just for reference, patent US8524717B2 is where these values come from.
